target: Factor X (FX), P00742
Sequence (P00742 whole entry, looked up): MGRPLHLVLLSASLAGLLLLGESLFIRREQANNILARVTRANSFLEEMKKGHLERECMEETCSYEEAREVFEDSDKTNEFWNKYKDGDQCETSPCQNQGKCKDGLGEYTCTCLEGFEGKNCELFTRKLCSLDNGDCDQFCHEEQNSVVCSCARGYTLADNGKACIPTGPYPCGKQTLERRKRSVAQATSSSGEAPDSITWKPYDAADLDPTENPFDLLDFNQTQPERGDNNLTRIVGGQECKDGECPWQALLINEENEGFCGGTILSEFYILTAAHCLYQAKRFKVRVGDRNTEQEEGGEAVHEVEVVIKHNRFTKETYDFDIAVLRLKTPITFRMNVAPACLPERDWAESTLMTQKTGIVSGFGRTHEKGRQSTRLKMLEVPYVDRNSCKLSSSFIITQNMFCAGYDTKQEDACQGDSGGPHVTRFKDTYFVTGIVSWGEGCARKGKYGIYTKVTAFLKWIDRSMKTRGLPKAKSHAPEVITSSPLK
Let's look at some proteins and their measured kcat.

- protein: "FIXa-Y155F/R338E/T343R/E410N (protein) chain 1: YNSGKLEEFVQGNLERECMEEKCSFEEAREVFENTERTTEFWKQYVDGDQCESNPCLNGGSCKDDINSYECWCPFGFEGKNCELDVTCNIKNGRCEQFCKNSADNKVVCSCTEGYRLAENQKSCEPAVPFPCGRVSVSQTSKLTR chain 2: VVGGEDAKPGQFPWQVVLNGKVDAFCGGSIVNEKWIVTAAHCVETGVKITVVAGEHNIEETEHTEQKRNVIRIIPHHNYNAAINKYNHDIALLELDEPLVLNSYVTPICIADKEYTNIFLKFGSGYVSGWGRVFHKGRSALVLQYLRVPLVDRATCLESTKFRIYNNMFCAGFHEGGRDSCQGDSGGPHVTEVEGTSFLTGIISWGEECAMKGKYGIYTKVSRYVNWIKNKTKLT"
  unit name: "s⁻¹"
  kcat: 6
- protein: "FIXa-K247N/N249S/R338E/T343R/E410N (protein) chain 1: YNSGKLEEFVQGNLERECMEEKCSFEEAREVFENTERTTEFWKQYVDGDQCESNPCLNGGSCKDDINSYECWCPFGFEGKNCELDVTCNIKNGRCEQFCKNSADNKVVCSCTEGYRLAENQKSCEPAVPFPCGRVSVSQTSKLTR chain 2: VVGGEDAKPGQFPWQVVLNGKVDAFCGGSIVNEKWIVTAAHCVETGVKITVVAGEHNIEETEHTEQNRSVIRIIPHHNYNAAINKYNHDIALLELDEPLVLNSYVTPICIADKEYTNIFLKFGSGYVSGWGRVFHKGRSALVLQYLRVPLVDRATCLESTKFRIYNNMFCAGFHEGGRDSCQGDSGGPHVTEVEGTSFLTGIISWGEECAMKGKYGIYTKVSRYVNWIKNKTKLT"
  unit name: "s⁻¹"
  kcat: 7.9
